# experimental-details: Solubility in KBR, FaSSIF V2 and FeSSIF V2
# condition-summary: FaSSIF V2, pH 6.5, fassif

# compound, solubility
measured = [
    ("CN1C(C(=O)Nc2ccccn2)=C(O)c2ccccc2S1(=O)=O", "290 µg/mL"),
    ("NC(=O)N1c2ccccc2C=Cc2ccccc21 [Carbamazepine]", "320 µg/mL"),
    ("COCCc1ccc(OCC(O)CNC(C)C)cc1 (racemic) [Metoprolol, (+/−)-Metoprolol]", "43800 µg/mL"),
    ("CNC(=C[N+](=O)[O-])NCCSCc1ccc(CN(C)C)o1", "15900 µg/mL"),
]

----------
# experimental-details: Segmental drug permeation across porcine duodenum, jejunum, ileum and colon, Ussing chamber
# Assay type: in vitro ADME, pig
# condition-summary: female, Swiss noble, pig, pH 7.4, duodenum, 100 µM in KBR; read-out: Papp,pig Ex Vivo Duodenum

# compound, unit-spec, Papp at 120 min, 100 µM
data = [
    ("COCCc1ccc(OCC(O)CNC(C)C)cc1 (racemic) [Metoprolol, (+/−)-Metoprolol]", "×10⁻⁶ cm/s", 0.39),
]

----------
# System: viable porcine intestine (jejunum)
# experimental-details: Passive absorption across viable porcine intestine (jejunum) ex vivo, Ussing chamber, from KBR and biorelevant media
# condition-summary: amount deposited in intestine at 2 h as % of donor; FaSSIF V2
Measured QDEP FaSSIF V2 of individual entries

# compound, measured-on, unit-spec, QDEP FaSSIF V2
rows = [
    ("NS(=O)(=O)c1cc2c(cc1Cl)NCNS2(=O)=O [Hydrochlorothiazide]", "viable porcine intestine (jejunum)", "%", 0.22),
    ("NS(=O)(=O)c1cc(C(=O)O)c(NCc2ccco2)cc1Cl [Furosemide]", "viable porcine intestine (jejunum)", "%", 2.22),
    ("CN1C(C(=O)Nc2ccccn2)=C(O)c2ccccc2S1(=O)=O", "viable porcine intestine (jejunum)", "%", 5.63),
    ("COCCc1ccc(OCC(O)CNC(C)C)cc1 (racemic) [Metoprolol, (+/−)-Metoprolol]", "viable porcine intestine (jejunum)", "%", 0.12),
]

----------
# experimental-details: Segmental drug permeation across porcine duodenum, jejunum, ileum and colon, Ussing chamber
# Assay type: in vitro ADME, pig
# condition-summary: female, Swiss noble, pig, pH 7.4, jejunum, 100 µM in KBR; read-out: Papp,pig Ex Vivo Jejunum

# compound, unit-spec, Papp at 120 min, 100 µM
records = [
    ("COCCc1ccc(OCC(O)CNC(C)C)cc1 (racemic) [Metoprolol, (+/−)-Metoprolol]", "×10⁻⁶ cm/s", 10.6),
]

----------
# experimental-details: Solubility in KBR, FaSSIF V2 and FeSSIF V2
# condition-summary: KBR buffer, pH 7.4, aqueous buffer
Examples of compounds with documented solubility follow.

# compound, unit-spec, solubility
data = [
    ("COCCc1ccc(OCC(O)CNC(C)C)cc1 (racemic) [Metoprolol, (+/−)-Metoprolol]", "mg/mL", 298),
    ("NC(=O)N1c2ccccc2C=Cc2ccccc21 [Carbamazepine]", "mg/mL", 0.2),
    ("CN1C(C(=O)Nc2ccccn2)=C(O)c2ccccc2S1(=O)=O", "mg/mL", 0.43),
    ("CNC(=C[N+](=O)[O-])NCCSCc1ccc(CN(C)C)o1", "mg/mL", 19.6),
]

----------
# experimental-details: Segmental drug permeation across porcine duodenum, jejunum, ileum and colon, Ussing chamber
# Assay type: in vitro ADME, pig
# condition-summary: female, Swiss noble, pig, pH 7.4, ileum, 100 µM in KBR; read-out: Papp,pig Ex Vivo Ileum

# compound, Papp at 120 min, 100 µM
data = [
    ("COCCc1ccc(OCC(O)CNC(C)C)cc1 (racemic) [Metoprolol, (+/−)-Metoprolol]", "6.87 ×10⁻⁶ cm/s"),
]

----------
# Tested on: viable porcine intestine (jejunum)
# experimental-details: Passive absorption across viable porcine intestine (jejunum) ex vivo, Ussing chamber, from KBR and biorelevant media
# condition-summary: amount deposited in intestine at 2 h as % of donor; FeSSIF V2
Reported QDEP FeSSIF V2 values are given for each entry in this list.

# molecule, QDEP FeSSIF V2, %
data = [
    ("NC(=O)N1c2ccccc2C=Cc2ccccc21 [Carbamazepine]", 3.45),
    ("CN1C(C(=O)Nc2ccccn2)=C(O)c2ccccc2S1(=O)=O", 0.21),
    ("COc1ccc2cc([C@H](C)C(=O)O)ccc2c1", 4.74),
    ("NS(=O)(=O)c1cc2c(cc1Cl)NCNS2(=O)=O [Hydrochlorothiazide]", 0.74),
    ("COCCc1ccc(OCC(O)CNC(C)C)cc1 (racemic) [Metoprolol, (+/−)-Metoprolol]", 0.22),
    ("NS(=O)(=O)c1cc(C(=O)O)c(NCc2ccco2)cc1Cl [Furosemide]", 1.52),
]
